Listed next: entries and their corresponding Ratio*.
target: BRM (Homo sapiens, UniProt P51531); construct: made in house; host or cells: High Five insect cells; experiment: ATPase catalytic activity of BRM, ADP-Glo in vitro biochemical assay; conditions: ratio of BRG1 IC50 to BRM IC50
Sequence (P51531 whole entry): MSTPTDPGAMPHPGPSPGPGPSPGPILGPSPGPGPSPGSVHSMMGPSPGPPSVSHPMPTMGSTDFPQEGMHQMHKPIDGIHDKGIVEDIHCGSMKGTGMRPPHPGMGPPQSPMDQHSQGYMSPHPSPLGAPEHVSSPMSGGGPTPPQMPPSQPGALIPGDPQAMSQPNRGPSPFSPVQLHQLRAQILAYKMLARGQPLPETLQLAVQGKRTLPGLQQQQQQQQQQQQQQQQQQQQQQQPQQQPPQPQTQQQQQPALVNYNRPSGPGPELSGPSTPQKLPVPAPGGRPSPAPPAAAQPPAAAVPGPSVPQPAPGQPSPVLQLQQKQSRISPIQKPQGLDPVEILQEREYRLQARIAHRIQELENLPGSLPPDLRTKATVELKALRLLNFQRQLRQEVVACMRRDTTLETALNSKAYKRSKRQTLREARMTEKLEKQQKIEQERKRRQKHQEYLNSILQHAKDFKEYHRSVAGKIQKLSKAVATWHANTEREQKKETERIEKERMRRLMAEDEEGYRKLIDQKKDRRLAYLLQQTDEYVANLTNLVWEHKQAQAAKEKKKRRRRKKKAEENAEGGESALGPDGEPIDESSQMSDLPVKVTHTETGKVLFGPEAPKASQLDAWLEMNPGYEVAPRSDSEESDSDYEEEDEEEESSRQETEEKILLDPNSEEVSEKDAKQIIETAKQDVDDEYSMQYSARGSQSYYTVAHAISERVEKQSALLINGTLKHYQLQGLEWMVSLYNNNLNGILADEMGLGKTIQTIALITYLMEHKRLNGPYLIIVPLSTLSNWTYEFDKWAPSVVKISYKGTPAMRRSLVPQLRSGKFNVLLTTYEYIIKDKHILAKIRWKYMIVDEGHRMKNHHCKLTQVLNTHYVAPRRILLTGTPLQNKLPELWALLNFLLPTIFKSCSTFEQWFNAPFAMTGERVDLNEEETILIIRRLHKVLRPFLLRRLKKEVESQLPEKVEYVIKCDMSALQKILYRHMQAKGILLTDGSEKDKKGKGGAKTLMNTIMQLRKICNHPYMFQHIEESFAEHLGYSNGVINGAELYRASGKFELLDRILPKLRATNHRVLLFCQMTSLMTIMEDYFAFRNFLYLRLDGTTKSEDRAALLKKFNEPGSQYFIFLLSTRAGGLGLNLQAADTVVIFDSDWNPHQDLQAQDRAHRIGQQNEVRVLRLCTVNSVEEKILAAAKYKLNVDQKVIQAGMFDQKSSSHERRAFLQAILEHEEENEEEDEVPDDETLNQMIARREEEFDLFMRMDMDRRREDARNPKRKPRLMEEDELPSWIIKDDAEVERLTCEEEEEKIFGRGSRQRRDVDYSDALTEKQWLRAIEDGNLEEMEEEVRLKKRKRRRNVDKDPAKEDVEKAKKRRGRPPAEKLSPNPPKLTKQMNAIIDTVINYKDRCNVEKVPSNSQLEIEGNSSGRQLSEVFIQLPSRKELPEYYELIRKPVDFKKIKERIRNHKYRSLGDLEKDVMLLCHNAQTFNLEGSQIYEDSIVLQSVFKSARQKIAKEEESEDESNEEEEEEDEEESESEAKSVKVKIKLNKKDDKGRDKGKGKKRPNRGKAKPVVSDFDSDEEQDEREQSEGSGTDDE
Answer as a number with no unit attached.

Enter reported Ratio* observed with BRM (Homo sapiens, UniProt P51531) for COC1(Cn2ccc3c(-c4ccc5cnc(CNC(=O)c6ccc7c(c6)S(=O)(=O)CCOC7)cc5n4)ccnc32)CC1 [Compound 585]
9.22

Input C[C@H]1COCc2ccc(C(=O)NCc3cc4nc(-c5cccc(OC(F)F)n5)ccc4cn3)cc2S1(=O)=O [Compound 384]
28.41

Input C[C@@H]1CN(c2cccc(-c3ccc4cnc(CNC(=O)c5cc6c(cc5F)COCCS6(=O)=O)cc4n3)n2)C[C@H](C)O1 [Compound 648]
3.85

Input CN(CCOC1CC1)c1cccc(-c2ccc3cnc(CNC(=O)c4ccc5c(c4)S(=O)(=O)CCOC5)cc3n2)n1 [Compound 361]
19.62

Input O=C(NCc1cc2nc(N3CCCc4c(OC5CC5)ccnc43)ccc2cn1)c1ccc2c(c1)S(=O)(=O)CCOC2 [Compound 677]
9.28

Next:
Enter reported Ratio* observed with BRM (Homo sapiens, UniProt P51531) for COC[C@@H]1C[C@@H]1N(C)c1cccc(-c2ccc3cnc(CNC(=O)c4ccc5c(c4)S(=O)(=O)CCOC5)cc3n2)n1 [Compound 413]
16.27

###

target: BRM (Homo sapiens, UniProt P51531); construct: made in house; host or cells: High Five insect cells; test: ATPase catalytic activity of BRM, ADP-Glo in vitro biochemical assay; settings: selectivity ratio BRG1 IC50 / BRM IC50
Listed next: entries and their corresponding Ratio* (BRG1 IC50 (μM) divided by BRM IC50 (μM)).
Answer as a number with no unit attached.

Enter reported Ratio* (BRG1 IC50 (μM) divided by BRM IC50 (μM)) observed with BRM (Homo sapiens, UniProt P51531) for O=C(NCc1cc2cc(-c3cncc(C4CC4)n3)ccc2cn1)c1ccc2c(c1)S(=O)(=O)CCOC2 [Compound 263]
14.94

Input CS(=O)(=O)c1cc(C(=O)NCc2cc3nc(-c4cccc(N5CC[C@H]6COC[C@H]6C5)n4)ccc3cn2)ccc1Cl [Compound 76]
14.90

Input Cc1ccc(C(=O)NCc2cc3nc(-c4cccc(N5C[C@@H](C)O[C@@H](C)C5)n4)ccc3cn2)cc1S(C)(=O)=O [Compound 195]
8.49

Input C[C@@H]1CN(c2cccc(-c3ccc4cnc(CNC(=O)c5cccc(S(C)(=O)=O)c5Cl)cc4n3)n2)C[C@H](C)O1 [Compound 82]
11.71

Input Cc1cc(C(=O)NCc2cc3nc(-c4cccc(N5C[C@@H](C)O[C@@H](C)C5)n4)ccc3cn2)cc2c1COCCS2(=O)=O [Compound 101]
7.32

The record that follows has no Ratio* (BRG1 IC50 (μM) divided by BRM IC50 (μM)) shown yet.
Enter reported Ratio* (BRG1 IC50 (μM) divided by BRM IC50 (μM)) observed with BRM (Homo sapiens, UniProt P51531) for CN1CCc2nc(-c3ccc4cnc(CNC(=O)c5ccc6c(c5)S(=O)(=O)CCOC6)cc4n3)ccc21 [Compound 176]
4.10

###

molecular target: BRG-1 (Homo sapiens, UniProt P51532); construct: made in house; host or cells: High Five insect cells; assay: ATPase catalytic activity of BRG-1, ADP-Glo in vitro biochemical assay; conditions: ADP-Glo ATPase assay, 30 nM BRG-1, 400 μM ATP; read-out: BRG1 IC50
Sequence (P51532 whole entry): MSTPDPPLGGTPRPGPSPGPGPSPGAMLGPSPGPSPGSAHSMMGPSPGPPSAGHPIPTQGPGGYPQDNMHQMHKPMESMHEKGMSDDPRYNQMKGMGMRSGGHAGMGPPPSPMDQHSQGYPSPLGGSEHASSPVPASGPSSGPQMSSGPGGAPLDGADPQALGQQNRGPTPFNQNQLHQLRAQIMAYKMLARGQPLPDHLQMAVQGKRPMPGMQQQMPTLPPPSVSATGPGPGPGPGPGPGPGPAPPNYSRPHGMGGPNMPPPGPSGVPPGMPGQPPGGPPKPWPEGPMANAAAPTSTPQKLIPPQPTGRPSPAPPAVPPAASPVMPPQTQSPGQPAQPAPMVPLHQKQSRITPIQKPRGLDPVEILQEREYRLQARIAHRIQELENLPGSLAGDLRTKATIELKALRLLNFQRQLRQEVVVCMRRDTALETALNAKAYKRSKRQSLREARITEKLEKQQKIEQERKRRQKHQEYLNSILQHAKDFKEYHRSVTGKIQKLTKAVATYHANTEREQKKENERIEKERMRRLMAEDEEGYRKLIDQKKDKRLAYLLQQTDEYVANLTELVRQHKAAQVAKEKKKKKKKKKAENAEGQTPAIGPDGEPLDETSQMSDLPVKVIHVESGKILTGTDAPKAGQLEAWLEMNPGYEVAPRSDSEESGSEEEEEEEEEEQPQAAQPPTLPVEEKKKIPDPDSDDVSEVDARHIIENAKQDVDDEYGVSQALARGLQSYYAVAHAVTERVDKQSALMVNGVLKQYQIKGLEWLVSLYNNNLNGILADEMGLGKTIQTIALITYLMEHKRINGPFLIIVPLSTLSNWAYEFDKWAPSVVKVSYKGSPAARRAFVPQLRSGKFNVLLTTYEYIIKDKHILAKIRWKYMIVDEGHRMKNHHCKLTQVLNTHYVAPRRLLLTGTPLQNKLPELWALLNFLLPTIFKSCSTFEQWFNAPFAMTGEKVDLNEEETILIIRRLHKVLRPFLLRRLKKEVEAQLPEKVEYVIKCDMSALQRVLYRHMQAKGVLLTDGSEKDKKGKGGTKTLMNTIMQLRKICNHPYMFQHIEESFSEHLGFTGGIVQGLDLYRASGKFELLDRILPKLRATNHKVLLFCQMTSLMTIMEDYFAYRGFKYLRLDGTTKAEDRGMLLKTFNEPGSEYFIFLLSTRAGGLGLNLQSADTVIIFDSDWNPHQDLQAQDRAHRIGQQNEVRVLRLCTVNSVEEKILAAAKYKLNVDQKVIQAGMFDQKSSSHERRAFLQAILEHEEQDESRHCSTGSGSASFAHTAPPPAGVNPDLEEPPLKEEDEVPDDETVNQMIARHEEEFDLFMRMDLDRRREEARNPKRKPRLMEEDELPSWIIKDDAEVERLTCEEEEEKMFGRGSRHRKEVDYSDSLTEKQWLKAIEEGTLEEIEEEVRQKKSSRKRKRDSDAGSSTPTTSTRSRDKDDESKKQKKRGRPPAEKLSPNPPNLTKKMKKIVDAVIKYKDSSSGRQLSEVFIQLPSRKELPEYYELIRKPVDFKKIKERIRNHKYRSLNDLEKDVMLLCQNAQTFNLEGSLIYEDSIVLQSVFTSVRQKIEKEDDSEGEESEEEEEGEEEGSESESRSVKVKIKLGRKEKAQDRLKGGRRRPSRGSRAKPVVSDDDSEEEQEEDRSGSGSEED
PARAMETER: IC50 (nM)
Enter your answer as a number in nM; do not include the unit.

Worked cases, IC50 given:
Report IC50 for O=C(NCc1cc2nc(-c3cccc(OC(F)(F)F)n3)ccc2cn1)c1ccc2c(c1)S(=O)(=O)CCOC2 please.
468

Input CS(=O)(=O)c1cc(C(=O)NCc2cc3nc(-c4cncc(C5CC5)n4)ccc3cn2)ccc1C1CC1
5000

Input O=C(NCc1cc2nc(N3CCOc4ccc(C5CC(F)(F)C5)nc43)ccc2cn1)c1ccc2c(c1)S(=O)(=O)CCOC2
2370

The record that follows has no IC50 shown yet.
Report IC50 for C[C@H]1COCc2ccc(C(=O)NCc3cc4nc(N5CCOc6cc(F)cnc65)ccc4cn3)cc2S1(=O)=O please.
428

###

Listed next: entries and their corresponding pIC50.
target: BRM (Homo sapiens, UniProt P51531); construct: made in house; host or cells: High Five insect cells; test: ATPase catalytic activity of BRM, ADP-Glo in vitro biochemical assay; settings: ATPase catalytic activity, ADP-Glo; 30 nM BRM, 400 μM ATP
Scale for pIC50: -log10 of concentration given in mol/L; no unit attached.

Worked cases, pIC50 given:
Report pIC50 for C[C@@H]1CN(c2cccc(-c3ccc4cnc(CNC(=O)c5ccc6c(c5)S(=O)(=O)[C@@H](C)COC6)cc4n3)c2F)C[C@H](C)O1 [Compound 609] please.
7.41

Input CC(C)S(=O)(=O)c1cccc(C(=O)NCc2cc3nc(-c4cccc(N5C[C@@H](C)O[C@@H](C)C5)n4)ccc3cn2)c1 [Compound 365]
7.88

Input COc1cc2c(nc1C1CC1)N(c1ccc3cnc(CNC(=O)c4ccc5c(c4)S(=O)(=O)CCOC5)cc3n1)CCC2 [Compound 683]
7.12

Input C[C@@H]1CN(c2cccc(-c3ccc4cnc(CNC(=O)c5ccc6c(c5)S(=O)(=O)CCC(F)(F)C6)cc4n3)n2)C[C@H](C)O1 [Compound 587]
7.95

Input C[C@@H]1CN(c2cccc(-c3ccc4cnc(CNC(=O)c5cc(Cl)c6c(c5)S(=O)(=O)CCO[C@H]6C)cc4n3)n2)C[C@H](C)O1 [Compound 547]
6.53

The record that follows has no pIC50 shown yet.
Report pIC50 for C[C@@H]1CN(c2cccc(-c3ccc4cnc(CNC(=O)c5cc(C6CCC6)c6c(c5)S(=O)(=O)CCOC6)cc4n3)n2)C[C@H](C)O1 [Compound 631] please.
5.92

###

Biological target: BRG-1 (Homo sapiens)
Construct: made in house; host or cells: High Five insect cells
Assay: ATPase catalytic activity of BRG-1, ADP-Glo in vitro biochemical assay
Conditions: ADP-Glo ATPase assay, 30 nM BRG-1, 400 μM ATP; read-out: BRG1 IC50
Experimental: The ATPase catalytic activity of BRM or BRG-1 was measured by an in vitro biochemical assay using ADP-Glo™ (Promega, V9102). The ADP-Glo™ kinase assay is performed in two steps once the reaction is complete. The first step is to deplete any unconsumed ATP in the reaction. The second step is to convert the reaction product ADP to ATP, which will be utilized by the luciferase to generate luminesce and be detected by a luminescence reader, such as Envision. […]
PARAMETER: pIC50
Scale for pIC50: -log10 of concentration given in mol/L; no unit attached.

Report pIC50 for O=C(NCc1cc2nc(-c3cccc([C@H]4CC4(F)F)n3)ccc2cn1)c1ccc2c(c1)S(=O)(=O)CCOC2 please.
5.96

Input CS(=O)(=O)c1cc(C(=O)NCc2cc3nc(-c4cncc(C5CC5)n4)ccc3cn2)ccc1Cl
5.57

Next:
Report pIC50 for C[C@@H]1CN(c2cccc(-c3ccc4cnc(CNC(=O)c5cc(F)c6c(c5)S(=O)(=O)CCOC6)cc4n3)n2)C[C@H](C)O1 please.
7.62

Input O=C(NCc1cc2nc(-c3ccccc3OCC3CC3)ccc2cn1)c1ccc2c(c1)S(=O)(=O)CCOC2
5.84

Input CS(=O)(=O)c1cc(C(=O)NCc2cc3nc(-c4cncc(C5CC5)n4)ccc3cn2)ccc1CC(F)F
5.85

Input COc1cc2c(cc1F)CCCN2c1ccc2cnc(CNC(=O)c3ccc4c(c3)S(=O)(=O)CCOC4)cc2n1
6.18

Input O=C(NCc1cc2nc(-c3cccc(C4(F)COC4)n3)ccc2cn1)c1ccc2c(c1)S(=O)(=O)CCOC2
5.58

###

biological target: BRG-1 (Homo sapiens, UniProt P51532); construct: made in house; host or cells: High Five insect cells; assay: ATPase catalytic activity of BRG-1, ADP-Glo in vitro biochemical assay; conditions: ADP-Glo ATPase assay, 30 nM BRG-1, 400 μM ATP; read-out: BRG1 IC50
PARAMETER: IC50 (µM)
Enter your answer as a number in µM; do not include the unit.

Enter reported IC50 observed with BRG-1 (Homo sapiens, UniProt P51532) for CC(F)(F)COc1cccc(-c2ccc3cnc(CNC(=O)c4ccc5c(c4)S(=O)(=O)CCOC5)cc3n2)n1 [Compound 126]
0.295

Input COCCN1CCCc2ccc(-c3ccc4cnc(CNC(=O)c5ccc6c(c5)S(=O)(=O)CCOC6)cc4n3)nc21 [Compound 109]
0.127

Input COCCN(C)c1cccc(-c2ccc3cnc(CNC(=O)c4ccc(C(F)F)c(S(C)(=O)=O)c4)cc3n2)n1 [Compound 110]
0.407

Next:
Enter reported IC50 observed with BRG-1 (Homo sapiens, UniProt P51532) for [2H]C1([2H])OC([2H])([2H])[C@@H](C)S(=O)(=O)c2cc(C(=O)NCc3cc4nc(-c5cccc(N6C[C@@H](C)O[C@@H](C)C6)n5)ccc4cn3)ccc21 [Compound 717]
0.432

Input CN(C)c1cc2c(cn1)N(c1ccc3cnc(CNC(=O)c4ccc5c(c4)S(=O)(=O)CCOC5)cc3n1)CCO2 [Compound 803]
0.105

Input O=C(NCc1cc2nc(N3CCCc4cnc(C5CC5)nc43)ccc2cn1)c1ccc2c(c1)S(=O)(=O)CCOC2 [Compound 780]
0.515

The measured values listed here are drawn from patent US20230416248A1.
